This collection of values is drawn from PubChem BioAssay AID248.

# System: L1210 leukemia ip in BDF1 mice, survival T/C
# protocol: NCI In Vivo Anticancer Drug Screen. Data for tumor model L1210 Leukemia (intraperitoneal) in B6D2F1 (BDF1) mice
# experimental conditions: endpoint: mean survival time; dose: 100.0 mg/kg/injection; schedule: Q01DX001 (ip); vehicle: other; higher = longer survival
Toxic doses and inconclusive results are not listed.
Overview of reported T/C across a group of compounds:

{"smiles entry": "Cc1ccc(NC(=S)NC(=O)COc2ccccc2)cc1C", "system under test": "L1210 leukemia ip in BDF1 mice, survival T/C", "T/C": "97 % of control"}
{"smiles entry": "CNS(=O)(=O)c1ccc(NC(=O)C(Cl)(Cl)Cl)cc1", "system under test": "L1210 leukemia ip in BDF1 mice, survival T/C", "T/C": "105 % of control"}
{"smiles entry": "CN(c1ccccc1)[N+](=O)[O-]", "system under test": "L1210 leukemia ip in BDF1 mice, survival T/C", "T/C": "94 % of control"}

###

# Tested on: L1210 leukemia ip in BDF1 mice, survival T/C
# protocol: NCI In Vivo Anticancer Drug Screen. Data for tumor model L1210 Leukemia (intraperitoneal) in B6D2F1 (BDF1) mice
# experimental conditions: endpoint: mean survival time; dose: 400.0 mg/kg/injection; schedule: Q04DX003 (ip); vehicle: acetone; higher = longer survival
Inconclusive results and toxic doses are left out.
Overview of reported T/C across a group of compounds:
measure: T/C

{"compound": "Nc1ccc2c(c1)C(=O)c1c(F)cccc1-2", "result": "91 % of control"}
{"compound": "CCCCCCCC(=O)Nc1ccc(F)cc1", "result": "90 % of control"}
{"compound": "CCOC(=O)C1C(CCC#N)C(=O)CCC1(C#N)c1ccccc1 (stereo unspecified)", "result": "98 % of control"}
{"compound": "[N-]=[N+]=Nc1ccc2[nH]c3ccccc3c(=O)c2c1", "result": "97 % of control"}
{"compound": "Cc1cc(C)c(S(=O)(=O)CC(Cl)c2ccccc2)c(C)c1 (stereo unspecified)", "result": "97 % of control"}
{"compound": "Cc1ccc(CSc2ssc(=S)c2-c2ccccc2)cc1", "result": "91 % of control"}

###

# Tested on: L1210 leukemia ip in BDF1 mice, survival T/C
# protocol: NCI In Vivo Anticancer Drug Screen. Data for tumor model L1210 Leukemia (intraperitoneal) in B6D2F1 (BDF1) mice
# experimental conditions: endpoint: mean survival time; dose: 150.0 mg/kg/injection; schedule: Q01DX001 (ip); vehicle: saline; higher = longer survival
Toxic doses and inconclusive results are not listed.
Overview of reported T/C across a group of molecules:
measure: T/C

{"molecule": "NS(=O)(=O)c1cc(Br)c2c(c1)S(=O)(=O)NCN2", "measure": "T/C", "result": "96 % of control"}
{"molecule": "CCC(C)(C)c1ccc(OCCCCCCN2CCN(c3ccc(C)c(Cl)c3)CC2)cc1", "measure": "T/C", "result": "110 % of control"}
{"molecule": "N=C(N)CNC(=O)c1ccccc1C(=O)O", "measure": "T/C", "result": "107 % of control"}
{"molecule": "C[n+]1cc(C#N)cc(C#N)c1", "measure": "T/C", "result": "108 % of control"}
{"molecule": "Cc1cc(C)c(C(=O)OC(c2ccccc2)C(C)c2ccccc2)c(C)c1 (stereo unspecified)", "measure": "T/C", "result": "94 % of control"}
{"molecule": "O=C(CC1C=CCC1)NCc1ccccc1 (stereo unspecified)", "measure": "T/C", "result": "95 % of control"}
{"molecule": "CC1(C)OC2C3CC(C2O1)n1cnc2c(N)nc[n+](c21)C3 (stereo unspecified)", "measure": "T/C", "result": "101 % of control"}
{"molecule": "O=C(NC(=S)NCc1ccccc1)c1ccccc1", "measure": "T/C", "result": "93 % of control"}
{"molecule": "Nc1ccc(C(=O)OCCCCC2CCCC2N)cc1 (stereo unspecified)", "measure": "T/C", "result": "113 % of control"}
{"molecule": "CN(C)c1ccc(-c2cc(C(=O)O)c3cc(I)ccc3n2)c(Cl)c1", "measure": "T/C", "result": "86 % of control"}
{"molecule": "CCN(CC)CCNC(=O)c1ccc2nc(N)sc2c1", "measure": "T/C", "result": "91 % of control"}

###

Overview of reported T/C across a group of molecules:
# System: L1210 leukemia ip in BDF1 mice, survival T/C
# protocol: NCI In Vivo Anticancer Drug Screen. Data for tumor model L1210 Leukemia (intraperitoneal) in B6D2F1 (BDF1) mice
# experimental conditions: endpoint: mean survival time; dose: 400.0 mg/kg/injection; schedule: Q04DX003 (ip); vehicle: water; higher = longer survival
# Method: The antitumor activity of compounds was measured in mice bearing transplantable tumors. Survival or tumor size were measured and the results are expressed as the measurement made in the treated group (T) divided by the measurement made in the vehicle treated control group (C). The tumor model used in this assay is L1210 Leukemia (intraperitoneal) in B6D2F1 (BDF1) mice
Toxic doses and inconclusive results are not listed.

{"smiles entry": "O=C1CN=C(c2ccccn2)c2cc(Cl)ccc2N1", "T/C": "102 % of control"}
{"smiles entry": "CCOc1nc(SCC)ncc1C", "T/C": "103 % of control"}
{"smiles entry": "COC(=O)CCC(=O)NCC(=O)OCc1ccccc1", "T/C": "90 % of control"}
{"smiles entry": "COc1ccc(C=O)cc1OCc1ccccc1", "T/C": "100 % of control"}

###

# System: L1210 leukemia ip in BDF1 mice, survival T/C
# protocol: NCI In Vivo Anticancer Drug Screen. Data for tumor model L1210 Leukemia (intraperitoneal) in B6D2F1 (BDF1) mice
# experimental conditions: endpoint: mean survival time; dose: 200.0 mg/kg/injection; schedule: Q01DX001 (ip); vehicle: Klucel (hydroxypropylcellulose) (HPC); higher = longer survival
Inconclusive results and toxic doses are left out.

{"compound": "COc1ccc2c(n1)Sc1c(Cl)nc(Cl)nc1N2", "T/C": "93 % of control"}
{"compound": "Cc1ccc2c(c1)C(c1ccccc1)=C(NC1CCCCC1)C2=O", "T/C": "91 % of control"}
{"compound": "O=C(NCCCl)Nc1ccc(Cl)cc1", "T/C": "102 % of control"}
{"compound": "COc1ccc(C(O)C(C)C(O)(C(F)(F)F)C(F)(F)F)cc1 (stereo not given)", "T/C": "101 % of control"}
{"compound": "O=C(/C(=C1\\SS/C(=C(/C(=O)c2ccccc2)c2ccccc2)S1)c1ccccc1)c1ccccc1", "T/C": "108 % of control"}
{"compound": "COC(=O)C(CCl)NC(=O)NCCCl (stereo not given)", "T/C": "96 % of control"}
{"compound": "Nc1nc(N)c(CCCOc2ccc(NC(=O)c3cc(S(=O)(=O)F)ccc3Cl)cc2)c(N)n1", "T/C": "99 % of control"}
{"compound": "N#Cc1cc(C(N)=O)c(N)nc1SCc1ccccc1", "T/C": "91 % of control"}
{"compound": "COc1c(OC)c(C(C)C)c2c(OC(C)=O)c(C)c(-c3c(C)c(OC(C)=O)c4c(C(C)C)c(OC)c(OC)c5c4c3OC5=O)c3c2c1C(=O)O3", "T/C": "98 % of control"}
{"compound": "c1ccc2[nH]c(C(=C(c3nc4ccccc4[nH]3)c3nc4ccccc4[nH]3)c3nc4ccccc4[nH]3)nc2c1", "T/C": "87 % of control"}

###

Overview of reported T/C across a group of compounds:
# Test system: L1210 leukemia ip in BDF1 mice, survival T/C
# protocol: NCI In Vivo Anticancer Drug Screen. Data for tumor model L1210 Leukemia (intraperitoneal) in B6D2F1 (BDF1) mice
# experimental conditions: endpoint: mean survival time; dose: 25.0 mg/kg/injection; schedule: Q01DX001 (ip); vehicle: saline; higher = longer survival
Inconclusive results and toxic doses are left out.

{"compound": "CC1CC(C)S(=O)(=O)C1 (centres undefined)", "T/C": "104 % of control"}
{"compound": "CC1(C)N=C(N)N=C(N)N1c1cccc(CCCCc2c(Cl)cccc2Cl)c1", "T/C": "105 % of control"}
{"compound": "Cc1[nH]nc(C(N)=O)c1N=NN(C)C", "T/C": "121 % of control"}
{"compound": "COCCOc1nccc(N)n1", "T/C": "97 % of control"}

###

Overview of reported T/C across a group of compounds:
# System: L1210 leukemia ip in BDF1 mice, survival T/C
# protocol: NCI In Vivo Anticancer Drug Screen. Data for tumor model L1210 Leukemia (intraperitoneal) in B6D2F1 (BDF1) mice
# experimental conditions: endpoint: mean survival time; dose: 25.0 mg/kg/injection; schedule: Q04DX003 (ip); vehicle: saline with Tween-80; higher = longer survival
Inconclusive results and toxic doses are left out.
measure: T/C

{"compound": "Cc1ccc(C(C)C)cc1NC(=O)/C=C/c1ccccc1", "result": "88 % of control"}
{"compound": "CCC[P+](c1ccccc1)(c1ccccc1)c1ccccc1", "result": "105 % of control"}
{"compound": "CCOC(=O)NCC(C)(CCN1CCOCC1)c1cccc2ccccc12 (configuration not stated)", "result": "93 % of control"}
{"compound": "CC1(C)C2CCC(CCO)C1C2 (configuration not stated)", "result": "88 % of control"}
{"compound": "CSc1nc([N+](=O)[O-])c2cnccn12", "result": "103 % of control"}
{"compound": "FC1(F)SC2CCCC2C1(F)F (configuration not stated)", "result": "104 % of control"}
{"compound": "Cc1cc(F)ccc1[As](=O)(O)O", "result": "101 % of control"}
